Listing of recorded Maximum inhibition rate %; hIL36α; IL-8 production by entry.
# Target under test: T1, IL-36R naturally expressed on OVCAR8 cells and on normal human epidermal keratinocytes (NHK cells) (human, UniProt Q9HB29 20-575)
# T1 sequence (looked up): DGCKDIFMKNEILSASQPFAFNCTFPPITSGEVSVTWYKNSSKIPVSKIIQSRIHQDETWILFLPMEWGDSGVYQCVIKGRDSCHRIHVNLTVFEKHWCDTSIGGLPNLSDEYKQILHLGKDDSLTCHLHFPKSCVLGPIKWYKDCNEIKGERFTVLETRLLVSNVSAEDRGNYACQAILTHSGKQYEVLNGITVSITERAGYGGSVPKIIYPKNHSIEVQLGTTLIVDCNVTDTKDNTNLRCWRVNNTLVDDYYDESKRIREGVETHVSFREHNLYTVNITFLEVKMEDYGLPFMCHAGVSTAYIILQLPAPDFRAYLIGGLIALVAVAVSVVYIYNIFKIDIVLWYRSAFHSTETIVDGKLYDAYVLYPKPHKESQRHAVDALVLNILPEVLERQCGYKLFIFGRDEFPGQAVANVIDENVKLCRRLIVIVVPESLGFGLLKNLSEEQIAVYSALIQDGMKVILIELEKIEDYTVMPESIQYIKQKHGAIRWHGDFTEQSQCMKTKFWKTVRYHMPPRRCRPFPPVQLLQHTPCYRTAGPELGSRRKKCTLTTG
# Assay method text: cell-based or functional assay
// units = %; emit number, no label

Sample records with Maximum inhibition rate %; hIL36α; IL-8 production:
* hz84C4-2.2 (antibody, human IgG4 S228P, kappa, V domains shown, Humanized, human IgG4 / kappa) VH: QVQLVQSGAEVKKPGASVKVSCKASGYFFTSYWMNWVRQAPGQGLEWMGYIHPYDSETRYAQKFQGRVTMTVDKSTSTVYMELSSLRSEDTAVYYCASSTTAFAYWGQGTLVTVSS VL: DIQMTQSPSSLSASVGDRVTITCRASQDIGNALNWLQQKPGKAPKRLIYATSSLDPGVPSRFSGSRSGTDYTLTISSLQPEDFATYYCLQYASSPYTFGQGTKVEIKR | 95.1
* hz84C4-1.2 (antibody, human IgG4 S228P, kappa, V domains shown, Humanized, human IgG4 / kappa) VH: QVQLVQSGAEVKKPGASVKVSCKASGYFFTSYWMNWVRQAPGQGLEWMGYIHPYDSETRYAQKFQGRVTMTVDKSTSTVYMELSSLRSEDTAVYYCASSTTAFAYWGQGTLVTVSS VL: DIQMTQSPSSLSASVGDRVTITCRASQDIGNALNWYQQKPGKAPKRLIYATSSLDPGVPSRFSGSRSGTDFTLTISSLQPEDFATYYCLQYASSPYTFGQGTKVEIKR | 92.5
* hz84C4-2.4 (antibody, human IgG4 S228P, kappa, V domains shown, Humanized, human IgG4 / kappa) VH: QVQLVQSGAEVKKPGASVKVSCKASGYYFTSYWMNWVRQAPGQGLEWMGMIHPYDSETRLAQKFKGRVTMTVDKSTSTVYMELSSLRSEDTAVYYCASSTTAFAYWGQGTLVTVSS VL: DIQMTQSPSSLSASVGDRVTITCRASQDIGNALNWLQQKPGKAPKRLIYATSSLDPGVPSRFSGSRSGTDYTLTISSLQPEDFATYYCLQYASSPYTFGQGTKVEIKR | 95
* hz84C4-2.1 (antibody, human IgG4 S228P, kappa, V domains shown, Humanized, human IgG4 / kappa) VH: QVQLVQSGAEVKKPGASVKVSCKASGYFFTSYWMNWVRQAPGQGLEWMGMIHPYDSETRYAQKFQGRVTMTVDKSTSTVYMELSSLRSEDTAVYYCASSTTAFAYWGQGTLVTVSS VL: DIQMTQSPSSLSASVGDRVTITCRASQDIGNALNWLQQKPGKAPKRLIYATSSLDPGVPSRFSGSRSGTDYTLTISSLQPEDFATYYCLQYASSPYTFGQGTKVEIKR | 99.5

### Prompt Entry hz84C4-2.3 (antibody, human IgG4 S228P, kappa, V domains shown, Humanized, human IgG4 / kappa) VH: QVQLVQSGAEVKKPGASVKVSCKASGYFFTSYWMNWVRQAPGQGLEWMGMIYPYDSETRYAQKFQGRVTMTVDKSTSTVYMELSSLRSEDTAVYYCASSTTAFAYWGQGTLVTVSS VL: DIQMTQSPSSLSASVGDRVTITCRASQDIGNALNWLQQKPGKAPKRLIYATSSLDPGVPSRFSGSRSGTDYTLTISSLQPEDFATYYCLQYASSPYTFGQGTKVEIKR : reported Maximum inhibition rate %; hIL36α; IL-8 production = ?
### Response 44.5

### Prompt Same read-out for hz84C4-1.4 (antibody, human IgG4 S228P, kappa, V domains shown, Humanized, human IgG4 / kappa) VH: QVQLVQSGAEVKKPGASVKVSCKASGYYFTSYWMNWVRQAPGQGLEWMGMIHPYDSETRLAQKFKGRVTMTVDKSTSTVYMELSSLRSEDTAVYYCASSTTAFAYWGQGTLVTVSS VL: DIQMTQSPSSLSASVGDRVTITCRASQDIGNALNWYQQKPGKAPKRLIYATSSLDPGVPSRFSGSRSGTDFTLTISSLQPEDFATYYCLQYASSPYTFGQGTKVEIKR ?
### Response 94.4

### Prompt Same read-out for hz84C4-2.5 (antibody, human IgG4 S228P, kappa, V domains shown, Humanized, human IgG4 / kappa) VH: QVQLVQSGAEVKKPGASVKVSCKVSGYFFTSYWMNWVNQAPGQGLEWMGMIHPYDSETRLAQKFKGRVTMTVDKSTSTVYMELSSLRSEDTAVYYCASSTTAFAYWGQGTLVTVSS VL: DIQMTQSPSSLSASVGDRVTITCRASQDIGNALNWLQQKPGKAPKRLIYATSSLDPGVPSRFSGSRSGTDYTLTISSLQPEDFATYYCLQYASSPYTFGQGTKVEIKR ?
### Response 99.7

### Prompt Same read-out for hz84C4-1.3 (antibody, human IgG4 S228P, kappa, V domains shown, Humanized, human IgG4 / kappa) VH: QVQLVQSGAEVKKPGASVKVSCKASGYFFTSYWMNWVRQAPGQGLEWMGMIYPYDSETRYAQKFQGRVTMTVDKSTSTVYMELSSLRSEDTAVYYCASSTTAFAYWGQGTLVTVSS VL: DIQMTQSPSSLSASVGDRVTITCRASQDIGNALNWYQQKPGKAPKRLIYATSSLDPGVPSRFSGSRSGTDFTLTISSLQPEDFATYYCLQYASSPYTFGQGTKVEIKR ?
### Response 16.9

### Prompt Same read-out for hz84C4-1.1 (antibody, human IgG4 S228P, kappa, V domains shown, Humanized, human IgG4 / kappa) VH: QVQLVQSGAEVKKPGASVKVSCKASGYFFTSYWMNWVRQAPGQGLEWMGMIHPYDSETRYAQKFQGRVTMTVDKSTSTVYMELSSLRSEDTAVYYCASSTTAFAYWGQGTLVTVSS VL: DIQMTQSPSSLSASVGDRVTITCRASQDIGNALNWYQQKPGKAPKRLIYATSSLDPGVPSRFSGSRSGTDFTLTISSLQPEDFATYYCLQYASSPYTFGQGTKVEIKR ?
### Response 103

### Prompt Same read-out for hz84C4-1.5 (antibody, human IgG4 S228P, kappa, V domains shown, Humanized, human IgG4 / kappa) VH: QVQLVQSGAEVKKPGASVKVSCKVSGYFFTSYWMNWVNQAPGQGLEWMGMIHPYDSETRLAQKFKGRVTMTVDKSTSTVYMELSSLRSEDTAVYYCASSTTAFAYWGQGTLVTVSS VL: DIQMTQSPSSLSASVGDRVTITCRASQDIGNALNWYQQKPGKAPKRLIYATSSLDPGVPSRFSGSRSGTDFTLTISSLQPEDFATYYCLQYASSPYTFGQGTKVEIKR ?
### Response 101
